System: human PD-1 stably expressed on Jurkat/IL-2 reporter cells (Jurkat/PD-1 cells) (human, UniProt Q15116 25-288)
Sequence (Q15116 25-288): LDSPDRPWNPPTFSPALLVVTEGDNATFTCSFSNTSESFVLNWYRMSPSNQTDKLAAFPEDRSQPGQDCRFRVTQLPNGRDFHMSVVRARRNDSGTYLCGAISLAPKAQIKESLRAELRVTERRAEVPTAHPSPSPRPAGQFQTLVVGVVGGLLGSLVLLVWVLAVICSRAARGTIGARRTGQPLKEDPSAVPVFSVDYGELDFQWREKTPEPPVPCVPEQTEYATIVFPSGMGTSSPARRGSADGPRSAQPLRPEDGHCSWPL
Protocol Text: flow cytometry, Jurkat/PD-1 cells
Known MFI at 20 nM conc. of a selection of binders
Your answer is read as MFI, so omit the unit and give the number.

Observe how each entry below is paired with its result.
variant PD-L1 ECD-Fc K23N, N45D, S75P, N120S (Fc fusion, not shown: a dimerising Fc or GST) FTVTVPKDLYVVEYGSNMTIECNFPVEKQLDLAALIVYWEMEDKDIIQFVHGEEDLKVQHSSYRQRARLLKDQLPLGNAALQITDVKLQDAGVYRCMISYGGADYKRITVKVNAPYNKISQRILVVDPVTSEHELTCQAEGYPKAEVIWTSSDHQVLSGKTTTTNSKREEKLFNVTSTLRINTTTNEIFYCTFRRLDPEENHTAELVIPELPLAHPPNER :: 132000
variant PD-L1 ECD-Fc N45D, N113Y, R195S (Fc fusion, not shown: a dimerising Fc or GST) FTVTVPKDLYVVEYGSNMTIECKFPVEKQLDLAALIVYWEMEDKDIIQFVHGEEDLKVQHSSYRQRARLLKDQLSLGNAALQITDVKLQDAGVYRCMISYGGADYKRITVKVYAPYNKINQRILVVDPVTSEHELTCQAEGYPKAEVIWTSSDHQVLSGKTTTTNSKREEKLFNVTSTLRINTTTNEIFYCTFRSLDPEENHTAELVIPELPLAHPPNER :: 112000

For the next question, use this binder.
stdin: Need MFI at 20 nM conc. of variant PD-L1 ECD-Fc M41K, D43G, N45D, R64S, R195G (Fc fusion, not shown: a dimerising Fc or GST) FTVTVPKDLYVVEYGSNMTIECKFPVEKQLDLAALIVYWEKEGKDIIQFVHGEEDLKVQHSSYSQRARLLKDQLSLGNAALQITDVKLQDAGVYRCMISYGGADYKRITVKVNAPYNKINQRILVVDPVTSEHELTCQAEGYPKAEVIWTSSDHQVLSGKTTTTNSKREEKLFNVTSTLRINTTTNEIFYCTFRGLDPEENHTAELVIPELPLAHPPNER , thanks.
stdout: 137000
